Target: T1, CD22 protein expressed on the surface of Daudi cells (human, UniProt P20273 20-847)
T1 construct: whole, on cells; also called human CD22; cell surface CD22
T1 sequence (looked up): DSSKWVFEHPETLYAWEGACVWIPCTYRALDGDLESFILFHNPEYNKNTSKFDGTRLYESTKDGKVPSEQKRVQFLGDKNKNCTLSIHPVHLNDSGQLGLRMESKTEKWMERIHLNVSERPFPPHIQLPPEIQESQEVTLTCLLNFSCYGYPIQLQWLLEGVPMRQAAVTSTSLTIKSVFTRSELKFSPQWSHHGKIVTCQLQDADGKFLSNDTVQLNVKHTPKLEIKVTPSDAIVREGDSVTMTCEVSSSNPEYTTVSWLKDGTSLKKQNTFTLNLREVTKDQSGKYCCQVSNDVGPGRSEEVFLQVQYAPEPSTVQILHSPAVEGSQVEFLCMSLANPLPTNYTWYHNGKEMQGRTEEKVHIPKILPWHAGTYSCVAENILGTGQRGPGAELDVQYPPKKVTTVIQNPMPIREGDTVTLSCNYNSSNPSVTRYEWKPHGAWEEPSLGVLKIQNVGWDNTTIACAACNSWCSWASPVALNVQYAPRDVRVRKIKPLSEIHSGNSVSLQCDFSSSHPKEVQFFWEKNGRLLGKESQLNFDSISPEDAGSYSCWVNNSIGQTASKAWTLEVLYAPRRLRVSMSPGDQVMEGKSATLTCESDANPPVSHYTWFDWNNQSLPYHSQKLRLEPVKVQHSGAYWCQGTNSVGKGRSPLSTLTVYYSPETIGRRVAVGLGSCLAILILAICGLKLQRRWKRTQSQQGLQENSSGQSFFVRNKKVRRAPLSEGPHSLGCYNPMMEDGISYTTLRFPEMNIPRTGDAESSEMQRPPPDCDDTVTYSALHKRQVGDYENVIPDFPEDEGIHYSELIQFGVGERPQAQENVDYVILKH
Test: Quantitative confocal immunofluorescence of directly FITC-labelled antibody (5 ug/ml, 45 min on ice) on Daudi cells. paragraph 243 calls these 'RMF surface binding values'.
EXPERIMENTAL ENDPOINT: RMF (Daudi Internalization by Confocal)

>  <BINDER>
VM1003 (antibody, V domains shown, Humanized antibody with human constant region; also called anti-CD22 Mab clone VM1003) VH: EVQLVQSGAEVKKPGATVKISCKVSGYVFTSYWLHWIRQSPSRGLEWLGYINPRNDYTEYNRIFKGRFVFSLDTSVSTAYLQICSLKAEDTAVYYCARRGITTFYWGQG VL: EIVLTQSPATLSLSPGERATLSCKSSQSVLYSAVEKNYLAWYQQKPGQAPRLLIYWASTRERGIPDRFSGSGSGTDFTLTISRLEPEDFAVYYCKQYLSSWTFGQG

>  <ASSAY RESULT>
~150 RMF

$$$$
>  <BINDER>
VM1007 (antibody, V domains shown, Humanized antibody with human constant region; also called anti-CD22 Mab clone VM1007) VH: QVQLVQSGAEVKKPGASVKVSCKASGYVFTSYWLHWVRQARGQRLEWIGYINPRNDYTEYNRIFKGRVTITADKSTSTAYMELSSLRSEDTAVYYCARRGITTFYWGQG VL: AIQLTQSPSSLSASVGDRVTITCKSSQSVLYSAVEKNYLAWYQQKPGKAPKLLIYWASTRERGVPSRFSGSGSGTDFTFTISSLEAEDAATYYCKQYLSSWTFGQG

>  <ASSAY RESULT>
~200 RMF

$$$$

// switching to the query binder
Could you tell me which RMF (Daudi Internalization by Confocal) is on file for VM1002 (antibody, V domains shown, Humanized antibody with human constant region; also called anti-CD22 Mab clone VM1002) VH: EVQLVQSGAEVKKPGESLRISCKGSGYVFTSYWLHWVRQAPGQGLEWMGYINPRNDYTEYNRIFKGRVTITADKSTSTAYMELSSLRSEDTAVYYCARRGITTFYWGQG VL: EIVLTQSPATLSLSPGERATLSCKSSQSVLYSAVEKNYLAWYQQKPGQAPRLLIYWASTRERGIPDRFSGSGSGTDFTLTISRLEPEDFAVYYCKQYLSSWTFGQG ?
~150 RMF
